Entries and their Growth rate control = 100 values follow.
# System: human normal hair papilla cells HFDPC-C
# Assay notes: Cell growth test on hair papilla cells (neutral red method, living cell number vs purified water control)
# Type: cell-based
# Experimental context: final concentration 5 mM, 72 hours culture, control = 100
Return type: number; implicit unit %.

Example cases with answers are listed next.
| Compound | Measure name | Units of measure | Endpoint value |
| --- | --- | --- | --- |
| N=C(N)NCCC[C@H](N)C(=O)O [Arg, arginine, reference compound] | Growth rate control = 100 | % | 101 |
| NCC(=O)O.O=C(O)[C@@H]1CCCN1 [GP, glycine-proline] | Growth rate control = 100 | % | 114 |

**Q:** Find the measured Growth rate control = 100: item NC(=O)CC[C@H](N)C(=O)O [Gln, glutamine, reference compound] , target or system human normal hair papilla cells HFDPC-C.
**A:** 100

**Q:** Find the measured Growth rate control = 100: item O=C(O)[C@@H]1C[C@@H](O)CN1 [O, hydroxyproline] , target or system human normal hair papilla cells HFDPC-C.
**A:** 110

**Q:** Find the measured Growth rate control = 100: item NCC(=O)O.O=C(O)[C@@H]1CCCN1 [PG, proline-glycine] , target or system human normal hair papilla cells HFDPC-C.
**A:** 120

**Q:** Find the measured Growth rate control = 100: item C[C@H](N)C(=O)O [Ala, alanine, reference compound] , target or system human normal hair papilla cells HFDPC-C.
**A:** 95

**Q:** Find the measured Growth rate control = 100: item O=C(O)[C@@H]1CCCN1 [Pro, proline, reference compound] , target or system human normal hair papilla cells HFDPC-C.
**A:** 96
